- TESTED SYSTEM: PCG2-DBD 12-128 (Magnaporthe oryzae, UniProt G4NA99 12-128)
- ASSAY SUMMARY: SPR; SPR (Biacore T100, steady state): 20 mM Tris pH 8.0, 150 mM NaCl, 0.005% Tween20; temperature not stated
- MEASUREMENT CONTEXT: protein: recombinant; tags: N-terminal 6xHis; label: 5'-biotin on strand S2; blunt
ENDPOINT NAME: pKd
Answers are plain numbers, as −log10 of the molar value.

Request: Give its pKd value. Item: MCB1 DNA (SPR) (dsDNA) DNA 1: CTTACGCGTCATTG DNA 2: CAATGACGCGTAAG
Result: 4.32
